System: NCIH-460 cells
protocol description: Cellular viability assay (NCIH-460, PARG-inhibition sensitive cell line)
Assay type: cell-based
condition info: Homo sapiens, NCI-H460, 96 h, 96 hours incubation, Cell Titer-Glo, read-out: EC50 determined in NCIH-460 cells, cellular viability assay
Structures can show the parent of a compound that is named as a salt.
Exercise: for every item that follows, state its recorded pEC50.
One number for each entry, as −log10 of the molar value.

> print(dat)
                                   molecule  readout.value
1  CC1(C)CN(c2cc(S(=O)(=O)NC3(C)CC3)cn3c(-c4nnc(C(F)F)s4)ncc23)CC(CO)N1 (stereo not shown)           7.03
2  COC[C@H]1CN(c2cc(S(=O)(=O)NC3(C)CC3)cn3c(-c4nnc(C(F)F)s4)ncc23)C[C@H](COC)N1 [Example 3, formate]           7.72
3  C[C@H]1CN(c2cc(S(=O)(=O)NC3(C)CC3)cn3c(-c4nnc(C(F)F)s4)cnc23)C[C@H](C)N1 [Example 1, formate]           7.15

Now consider a different molecule.
Exercise: What measured pEC50 goes with CC1(NS(=O)(=O)c2cc(C3=CCNCC3)c3c(C(F)(F)F)nc(-c4nnc(C(F)F)s4)n3c2)CC1 [Example 12, formate] ?
Solution: 7.03

###

Exercise: for every item that follows, state its recorded IC50.
measured target: human PARG (Homo sapiens, UniProt Q86W56, A967T/C963S/D927K/H446G/I916T/L447S/L473S/M841I/N479S/R811K/S802A/S858P/T924D)
Construct: human PARG (448-976 [H446G, L447S, L473S); 6His-TwinStrep (protease-cleavable) (N, cleaved yes); Gly-Ser at positions 446-447, given as H446G, L447S
Sequence (Q86W56 446-976 H446G/L447S/L473S/N479S/S802A/R811K/M841I/S858P/I916T/T924D/D927K/C963S/A967T): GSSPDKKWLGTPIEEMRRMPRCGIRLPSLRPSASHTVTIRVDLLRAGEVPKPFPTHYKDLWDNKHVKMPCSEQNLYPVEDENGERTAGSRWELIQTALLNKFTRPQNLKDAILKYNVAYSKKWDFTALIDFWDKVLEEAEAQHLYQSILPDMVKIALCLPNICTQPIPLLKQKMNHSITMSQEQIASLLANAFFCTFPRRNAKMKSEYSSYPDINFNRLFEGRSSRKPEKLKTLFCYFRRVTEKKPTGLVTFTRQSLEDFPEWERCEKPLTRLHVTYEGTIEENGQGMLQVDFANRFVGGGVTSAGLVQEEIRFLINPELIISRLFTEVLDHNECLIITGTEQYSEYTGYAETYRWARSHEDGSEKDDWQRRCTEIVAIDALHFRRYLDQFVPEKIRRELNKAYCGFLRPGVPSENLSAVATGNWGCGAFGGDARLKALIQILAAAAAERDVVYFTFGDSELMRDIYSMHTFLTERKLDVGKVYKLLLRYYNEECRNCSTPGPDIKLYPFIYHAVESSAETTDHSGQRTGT
protocol description: PARG enzymatic IC50 assay
condition info: PARG protein, 2 hours incubation; substrate ADP-ribose-pNP, absorbance 405 nm; read-out: IC50 determined in PARG enzymatic assay
Counter-ions that a name gives are not always drawn.
Param answer (str): number followed by unit.

See these solved cases before continuing.
> print(dat)
                                   molecule  readout  readout.value
1  CC1(NS(=O)(=O)c2cc(C3=CCNCC3)c3c(C(F)(F)F)nc(-c4nnc(C(F)F)s4)n3c2)CC1 [Example 12, formate]     IC50          11 nM
2  CC1(NS(=O)(=O)c2cc(C3=CCNCC3)c3c(C4CC4)nc(-c4nnc(C(F)F)s4)n3c2)CC1     IC50          16 nM
3  C[C@H]1CN(c2cc(S(=O)(=O)NC3(C)CC3)cn3c(-c4nnc(C(F)F)s4)cnc23)C[C@H](C)N1 [Example 1, formate]     IC50          11 nM

Could you tell me IC50 for each of these molecules? They are listed below.
1. COC[C@H]1CN(c2cc(S(=O)(=O)NC3(C)CC3)cn3c(-c4nnc(C(F)F)s4)ncc23)C[C@H](COC)N1 [Example 3, formate]
2. CC1(C)CN(c2cc(S(=O)(=O)NC3(C)CC3)cn3c(-c4nnc(C(F)F)s4)ncc23)CC(CO)N1 (single isomer, unassigned) [Example 14b]
3. CC1(C)CN(c2cc(S(=O)(=O)NC3(C)CC3)cn3c(-c4nnc(C(F)F)s4)ncc23)CC(CO)N1 (single isomer, unassigned) [Example 14a]
4. C[C@H]1CN(c2cc(S(=O)(=O)NC3(C)CC3)cn3c(-c4nnc(C(F)F)s4)nc(F)c23)C[C@H](C)N1

Solution:
["12 nM", "12 nM", "15 nM", "16 nM"]

Could you tell me IC50 for each of these molecules? They are listed below.
1. CN=S1(=O)CCN(c2cc(S(=O)(=O)NC3(C)CC3)cn3c(-c4nnc(C(F)F)s4)ncc23)CC1C (centres unmarked)
2. CC1(NS(=O)(=O)c2cc(C3=CCNCC3(F)F)c3c(Cl)nc(-c4nnc(C(F)F)s4)n3c2)CC1

Solution:
1: 11 nM; 2: 11 nM

Could you tell me IC50 for each of these molecules? They are listed below.
1. CC1(C)CN(c2cc(S(=O)(=O)NC3(C)CC3)cn3c(-c4nnc(C(F)F)s4)ncc23)CC(CO)N1 (centres unmarked) [Example 14]
2. CC1CN(c2cc(S(=O)(=O)NC3(C)CC3)cn3c(-c4nnc(C(F)F)s4)ncc23)CC2(CC2)N1 (centres unmarked) [Example 10, formate]

Solution:
1. 11 nM
2. 11 nM
